Target: Thymidylate synthase (Lactobacillus casei, UniProt P00469)
Sequence (P00469 whole entry): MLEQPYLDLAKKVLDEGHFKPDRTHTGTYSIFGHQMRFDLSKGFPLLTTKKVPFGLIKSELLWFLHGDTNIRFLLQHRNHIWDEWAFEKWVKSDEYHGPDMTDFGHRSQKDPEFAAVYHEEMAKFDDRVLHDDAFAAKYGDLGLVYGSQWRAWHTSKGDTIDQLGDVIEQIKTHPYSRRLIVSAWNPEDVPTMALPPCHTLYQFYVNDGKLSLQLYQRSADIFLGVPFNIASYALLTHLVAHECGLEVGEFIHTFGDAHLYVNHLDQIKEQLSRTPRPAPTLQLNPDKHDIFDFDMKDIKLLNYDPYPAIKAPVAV
Value type: IC50
Write the numeric value and append its unit.

Report IC50 for Nc1nc(N)c2nc(CCSc3ccc(C(=O)NC(CCC(=O)O)C(=O)O)cc3)cnc2n1 (stereo unspecified) please.
60 µM

====

target: Reduced folate carrier (Homo sapiens); assay: Ability to compete with methotrexate transport in human HeLa cells was determined; settings: read-out: I50
Value type: pIC50
Please note pIC50 is a logarithmic value: minus log10 of concentration in mol/L. Answer with that number alone.

# get_value(readout='pIC50', item= Nc1nc(N)c2nc(CSc3ccc(C(=O)NC(CCC(=O)O)C(=O)O)cc3)cnc2n1 (stereo unspecified) )
5.57
